target: [^3H]gabapentin site in porcine cortical membranes (Sus scrofa, UniProt O77773); assay: [3H]gabapentin binding site competition in porcine cortical membranes; details: read-out: IC50 arithmetic mean (N = 3) ± S.E.M., binding affinity for the [3H]gabapentin site, mean of n = 3 ± S.E.M.
Sequence (O77773 25-1091): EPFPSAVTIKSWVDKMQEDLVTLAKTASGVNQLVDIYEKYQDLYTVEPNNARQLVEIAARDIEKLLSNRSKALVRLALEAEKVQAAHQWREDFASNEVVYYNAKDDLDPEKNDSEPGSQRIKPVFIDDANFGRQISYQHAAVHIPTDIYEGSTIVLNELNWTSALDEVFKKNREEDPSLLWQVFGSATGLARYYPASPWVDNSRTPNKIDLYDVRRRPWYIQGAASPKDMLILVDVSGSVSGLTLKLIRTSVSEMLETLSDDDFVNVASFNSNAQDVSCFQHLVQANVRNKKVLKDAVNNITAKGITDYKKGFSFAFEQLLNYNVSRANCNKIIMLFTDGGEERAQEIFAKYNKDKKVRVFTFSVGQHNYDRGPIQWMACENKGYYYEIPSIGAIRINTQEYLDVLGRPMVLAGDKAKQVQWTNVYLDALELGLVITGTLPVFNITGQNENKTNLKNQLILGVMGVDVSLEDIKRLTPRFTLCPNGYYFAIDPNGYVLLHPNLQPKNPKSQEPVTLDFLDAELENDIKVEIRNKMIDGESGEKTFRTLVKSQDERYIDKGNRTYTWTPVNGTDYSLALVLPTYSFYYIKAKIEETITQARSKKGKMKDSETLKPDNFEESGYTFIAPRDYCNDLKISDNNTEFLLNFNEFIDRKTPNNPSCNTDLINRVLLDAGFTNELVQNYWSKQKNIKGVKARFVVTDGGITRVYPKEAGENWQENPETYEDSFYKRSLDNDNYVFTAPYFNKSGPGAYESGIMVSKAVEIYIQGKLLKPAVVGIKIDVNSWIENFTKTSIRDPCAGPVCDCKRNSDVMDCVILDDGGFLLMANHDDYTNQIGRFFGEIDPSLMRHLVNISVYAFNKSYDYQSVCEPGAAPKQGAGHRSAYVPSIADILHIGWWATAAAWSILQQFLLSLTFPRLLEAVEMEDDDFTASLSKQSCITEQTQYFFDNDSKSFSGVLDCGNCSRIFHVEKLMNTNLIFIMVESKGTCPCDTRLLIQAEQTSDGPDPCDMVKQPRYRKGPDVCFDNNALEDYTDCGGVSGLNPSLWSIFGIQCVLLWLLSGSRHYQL
measure: pIC50
Kindly note that pIC50 refers to -log10 of the concentration in mol/L and answer with the value alone.

compound: CC(C)C[C@H](N)C(=O)O [L-Leucine]
pIC50: 7.21
//
compound: CC[C@@H](C)[C@H](N)C(=O)O [L-Allo-Isoleucine]
pIC50: 7.48
//
compound: CSCC[C@H](N)C(=O)O [L-Methionine]
pIC50: 7.30
//
compound: CCCC[C@H](N)C(=O)O [L-Norleucine]
pIC50: 7.63
//
compound: N[C@@H](Cc1ccccc1)C(=O)O [L-Phenylalanine]
pIC50: 6.45
//
compound: CC[C@H](C)[C@H](N)C(=O)O [L-Isoleucine]
pIC50: 7.16

Q) Item CC(C)[C@H](N)C(=O)O [L-Valine] : provide pIC50
A) 6.48
